Cited source: PubChem BioAssay (NCI)

# Tested on: SNB-19 CNS
# assayName: NCI tumour cell line growth inhibition, 48 h
quantityName: TGI

Here's what some known entries look like.
Record "N#Cc1c(N)c(C#N)c2c(c1-c1ccc(Cl)cc1)COc1ccccc1-2" . Reported TGI: 30.6 µM

Record "Cc1nc(Nc2ccccc2)sc1C(=O)CC(=O)C(=O)NC12CC3CC(CC(C3)C1)C2" . Reported TGI: > 100 µM

Record CC(C)(C)NC(=O)C12C3C4C1C1C2C3C41C(=O)NC(C)(C)C (stereo unspecified) . Reported TGI: > 100 µM

Record "CCN(CC)CCNc1ccc(C)c2sc3ccccc3c(=O)c12" . Reported TGI: 8.85 µM

Record "NC(=S)NS(=O)(=O)c1ccc(F)cc1F" . Reported TGI: > 100 µM

Next:
Record "Cc1cc(NNC(=O)c2ccccc2O)nc(Nc2nc3ccccc3o2)n1" . Reported TGI: 21.3 µM

Record CC(O[Si](c1ccccc1)(c1ccccc1)C(C)(C)C)[C@H](NC(=O)OC(C)(C)C)C(=O)O (stereo partly specified) . Reported TGI: > 100 µM

Record "O=c1nc2sc3ccc4ccccc4c3n2[nH]c1=O" . Reported TGI: > 100 µM

Record "Cc1c2c(ccc3ccccc32)c[n+]2ccccc12" . Reported TGI: 7.89 µM

Record CCOc1c(C#N)c2c(N)ncnc2n1C1OC(CO)C(O)C1O (stereo unspecified) . Reported TGI: > 100 µM

Record COC(=O)C(=O)C(C(=O)C(=O)Nc1ccc(C)cc1)c1nc2ccc(C(=O)c3ccccc3)cc2[nH]c1=O (stereo unspecified) . Reported TGI: > 100 µM

Record "C/C(CCn1[nH]c(=O)ccc1=O)=N\Nc1ccc([N+](=O)[O-])cc1[N+](=O)[O-]" . Reported TGI: > 100 µM

Record "CC(=O)Oc1c2oc3cc(O)c(O)cc3c2c(OC(C)=O)c2oc3cc(O)c(O)cc3c12" . Reported TGI: 94.2 µM

Record COc1ccc2c(c1)N(CCO)C1=C(C(=O)OC1)C2c1ccccc1 (stereo unspecified) . Reported TGI: > 50 µM

Record COc1ccc2nc3n(c2c1)C(c1c(Cl)cccc1Cl)SC3 (stereo unspecified) . Reported TGI: > 100 µM

Record "COc1cc(-c2ccc(NC(=O)NC3CC3)c(OC)c2)ccc1NC(=O)NC1CC1" . Reported TGI: > 100 µM

Record CC(Oc1ccccc1Cl)C(=O)NN1C(=O)CSC1c1ccc(Cl)cc1 (stereo unspecified) . Reported TGI: 50.2 µM

Record C=C1NC(=O)C(CC(C(=O)C(=O)Nc2c(C)cccc2C(C)(C)C)C(=O)c2ccc3ccccc3c2)C(=O)N1 (stereo unspecified) . Reported TGI: > 100 µM

Record "COc1ncnc2c1cnn2Cc1cn(CCCCO)nn1" . Reported TGI: > 100 µM

Record "COc1ccc(Nc2nc3ccccc3nc2C(=O)O)cc1OC" . Reported TGI: > 100 µM

Record CC(=O)ON(C(C)=O)C1C(COC(c2ccccc2)(c2ccccc2)c2ccccc2)OC2OC3(CCCC3)OC21 (stereo unspecified) . Reported TGI: > 100 µM

Record "O=C(O)CCSC(=S)Nc1cccc(F)c1" . Reported TGI: > 100 µM

Record "COc1cc2c(cc1OC)c1c(OC)c(OC)cc3c1c1c2sc(=S)n1CC3" . Reported TGI: > 100 µM

Record "CCOC(=O)c1[nH]c2nc(SC)nc(Nc3ccccc3Cl)c2c1N" . Reported TGI: 44.5 µM
